- PROCEDURE DETAILS: BSK_3C_TissueFactor: BioMAP Diversity Plus: 3C Assay for Tissue Factor Biomarker Activity (AID 2282997)
- MEASUREMENT CONTEXT: BioMAP 3C HUVEC, tissue factor biomarker readout; actives raise or lower the signal
Activity calls are given as the source filed them. Rule for the calls: active = hit-call score of the fitted dose curve at least 0.9, where 1 is the maximum; inactive = score below 0.9.
// one of active, inactive, no free text

COMPOUND	LABEL VALUE
O=C(O)C1(c2ccc3c(c2)OC[C@H](Cc2ccc(-c4ccccc4)cc2)[C@H]3O)CCCC1	inactive
Cc1ccc2nc3sc(=O)sc3nc2c1	inactive
Oc1c(Cl)cc(Cl)cc1Cl	inactive

Prompt: What call does the record list for CC(C)(C)c1cc([N+](=O)[O-])cc(C(C)(C)C)c1O ?
Response: active

Prompt: What call does the record list for CC(C)O.CC(C)O.OCCN(CCO)CCO.OCCN(CCO)CCO.[Ti] ?
Response: inactive

Prompt: What call does the record list for CCC(C)(C#N)N=NC(C)(C#N)CC (stereo unspecified) ?
Response: inactive

Prompt: What call does the record list for Cc1ccc(OP(=O)(Oc2ccc(C)cc2C)Oc2ccc(C)cc2C)c(C)c1 ?
Response: inactive

Prompt: What call does the record list for O=C(CCl)NCO ?
Response: inactive

Prompt: What call does the record list for CC1(C)[C@H](C(=O)O[C@H](C#N)c2cccc(Oc3ccccc3)c2)[C@@H]1/C=C(\Cl)C(F)(F)F ?
Response: inactive

Prompt: What call does the record list for Cc1cccc(OP(=O)(Oc2cccc(C)c2)Oc2cccc(C)c2)c1 ?
Response: inactive

Prompt: What call does the record list for COCC(=O)N(c1c(C)cccc1C)[C@H](C)C(=O)OC ?
Response: inactive

Prompt: What call does the record list for CCCCCCCCCCCCc1cccc(S(=O)(=O)O)c1 ?
Response: inactive

Prompt: What call does the record list for NC(=O)CCl ?
Response: inactive

Prompt: What call does the record list for CCCCOC(=O)COC(=O)c1ccccc1C(=O)OCCCC ?
Response: inactive

Prompt: What call does the record list for O=C1C=CC(=O)c2ccccc21 ?
Response: active

Prompt: What call does the record list for O=S(=O)(c1ccc(Cl)cc1)c1cc(Cl)c(Cl)cc1Cl ?
Response: inactive

Prompt: What call does the record list for CC(C)N(C(=O)CCl)c1ccccc1 ?
Response: inactive

Prompt: What call does the record list for Cc1ccccc1OP(=O)(Oc1ccccc1)Oc1ccccc1 ?
Response: active

Prompt: What call does the record list for Cc1ccccc1OP(=O)(Oc1ccccc1C)Oc1ccccc1C ?
Response: active

Prompt: What call does the record list for CCOC(=O)C(SP(=S)(OC)OC)c1ccccc1 (stereo unspecified) ?
Response: inactive

Prompt: What call does the record list for [Cl][Sn]([c]1ccccc1)([c]1ccccc1)[c]1ccccc1 ?
Response: active

Prompt: What call does the record list for Nc1c(Oc2ccccc2)cc(O)c2c1C(=O)c1ccccc1C2=O ?
Response: inactive

Prompt: What call does the record list for c1ccc(-c2cccc(-c3ccccc3)c2)cc1 ?
Response: active

Prompt: What call does the record list for O=C(Cc1ccccc1)OCCc1ccccc1 ?
Response: inactive

Prompt: What call does the record list for Clc1cccc(Cl)c1 ?
Response: inactive

Prompt: What call does the record list for O=S(=O)(C(Cl)(Cl)Cl)C(Cl)(Cl)Cl ?
Response: active
